biological target: UniProt Q7ZJM1; experiment: Inhibition of HIV1 integrase 3'-end processing activity
pIC50: −log10 of the molar value.
REPORTED_METRIC: pIC50

These solved cases illustrate the format of a correct answer.
[
  {
    "COMPOUND": "O=C(/C=C/c1ccccc1O)c1ccc(O)cc1O",
    "pIC50": 4.28
  },
  {
    "COMPOUND": "CC(=O)Nc1ccc2c(c1)OCCOCCOc1cc(NC(C)=O)ccc1OCCOCCO2",
    "pIC50": 3.17
  },
  {
    "COMPOUND": "O=C(Oc1ccc(/C=N/Nc2nnc3c(n2)[nH]c2ccccc23)cc1)c1ccc(Br)cc1",
    "pIC50": 3.07
  },
  {
    "COMPOUND": "O=C(Nc1nccs1)/C(O)=C/C(=O)c1ccc(Cl)cc1",
    "pIC50": 4.02
  },
  {
    "COMPOUND": "O=S(=O)(Nc1ccc(Br)cc1)c1ccc(Sc2ccc(S(=O)(=O)Nc3ccc(Br)cc3)cc2)cc1",
    "pIC50": 3.79
  },
  {
    "COMPOUND": "O=C(NNC(=O)c1c(O)c2ccccc2[nH]c1=O)c1ccccc1F",
    "pIC50": 4.28
  },
  {
    "COMPOUND": "O=C(NNC(=O)c1c(O)c2ccccc2[nH]c1=O)c1ccccc1",
    "pIC50": 4.00
  },
  {
    "COMPOUND": "Nc1ccc(C(=O)CC(=O)Nc2cc(C(=O)O)cc(C(=O)O)c2)cc1",
    "pIC50": 4.39
  }
]

[a] Oc1ccc(Cl)cc1/C=C/c1ccc2cccc(O)c2n1
[b] Cc1ccc(NCC(=O)N/N=C/c2cccc(OC(=O)c3ccc4c(c3)OCO4)c2)cc1
[c] O=c1nc2n(-c3ccc(Cl)cc3)c3ccc([N+](=O)[O-])cc3cc-2c(=O)[nH]1
[d] CCn1c(=O)c(C(=O)NNC(=O)c2ccccc2[N+](=O)[O-])c(O)c2ccccc21
[e] Cc1cc(O)nc(SCC(=O)c2ccc(O)c(O)c2)n1
[ask] List these items ordered by pIC50, big to small. # the answer lists labels in the order requested
[reply] d, c, a, e, b
(d: 4.44, c: 4.11, a: 3.71, e: 3.51, b: 3.17)

[1] O=C(O)COc1ccccc1/C=N/Nc1nncc(-c2ccccc2)n1
[2] CCCOc1ccc(/C=N/NC2=NC(c3ccccc3O)CC(c3ccccc3)=N2)c(O)c1 (stereo not given)
[ask] Which item exceeds the other in pIC50, 1 or 2 ? Returns: label corresponding to the selected item.
[reply] 2
(2: 4.19, 1: 3.67)

###

biological target: Human immunodeficiency virus type 1 integrase (Human immunodeficiency virus 1, UniProt Q7ZJM1); experiment: Inhibition of HIV1 integrase strand transfer activity
Sequence (Q7ZJM1 whole entry): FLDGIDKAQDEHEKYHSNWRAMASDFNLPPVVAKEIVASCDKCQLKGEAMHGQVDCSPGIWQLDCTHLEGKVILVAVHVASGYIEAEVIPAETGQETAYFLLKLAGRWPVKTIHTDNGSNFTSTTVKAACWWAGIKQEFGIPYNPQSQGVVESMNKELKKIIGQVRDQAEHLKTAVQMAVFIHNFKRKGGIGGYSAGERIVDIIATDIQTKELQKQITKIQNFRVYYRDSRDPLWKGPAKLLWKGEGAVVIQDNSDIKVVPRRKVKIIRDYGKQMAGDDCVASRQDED
pIC50: −log10 of the molar value.
REPORTED_METRIC: pIC50

Recorded results for 3 compounds are shown here.
[
  {
    "CHEMICAL_STRING": "O=C(CSc1nc(O)c2ccccc2n1)c1ccc(O)c(O)c1",
    "REPORTED_METRIC": "pIC50",
    "REPORTED_RESULT": 4.11
  },
  {
    "CHEMICAL_STRING": "CCn1c(=O)c(C(=O)NNC(=O)c2ccc([N+](=O)[O-])cc2)c(O)c2ccccc21",
    "REPORTED_METRIC": "pIC50",
    "REPORTED_RESULT": 4.70
  },
  {
    "CHEMICAL_STRING": "O=C(CCC(=O)Nc1ccc([N+](=O)[O-])c(C(F)(F)F)c1)Nc1ccc([N+](=O)[O-])c(C(F)(F)F)c1",
    "REPORTED_METRIC": "pIC50",
    "REPORTED_RESULT": 3.68
  }
]

[a] O=C(/C=C/c1ccccc1OC(=O)c1cc2ccccc2oc1=O)c1ccccc1
[b] CCn1c(=O)c(C(=O)NNC(=O)c2ccccc2[N+](=O)[O-])c(O)c2ccccc21
[ask] Param pair: a , b . Output: the one whose pIC50 is numerically greater. Field: selected label. Fill in the label of the entry you choose.
[reply] b
(b: 4.52, a: 4.04)

###

target: Human immunodeficiency virus type 1 integrase (Human immunodeficiency virus 1, UniProt Q7ZJM1); assay: Inhibition of HIV1 integrase 3'-end processing activity
pIC50: −log10 of the molar value.
REPORTED_METRIC: pIC50

Here is how some compounds turned out for pIC50.
[
  {
    "CHEMICAL_STRING": "CCCCCCc1nc2ccccc2c(=O)n1NC(=O)c1c(O)c2ccccc2n(CC)c1=O",
    "REPORTED_RESULT": "< 4.00"
  },
  {
    "CHEMICAL_STRING": "COc1ccc(/C=C/C(=O)c2ccc(O)cc2O)cc1",
    "REPORTED_RESULT": "< 4.00"
  }
]

// below: pIC50 requested for another compound
Entry `O=C(N/N=C/c1c[nH]c2ccccc12)c1ccc(O)c(O)c1` — recorded pIC50 = < 3.00
